Biological target: human ether-à-go-go-related gene (hERG) potassium channel (human)
Sequence (Q12809 whole entry, looked up): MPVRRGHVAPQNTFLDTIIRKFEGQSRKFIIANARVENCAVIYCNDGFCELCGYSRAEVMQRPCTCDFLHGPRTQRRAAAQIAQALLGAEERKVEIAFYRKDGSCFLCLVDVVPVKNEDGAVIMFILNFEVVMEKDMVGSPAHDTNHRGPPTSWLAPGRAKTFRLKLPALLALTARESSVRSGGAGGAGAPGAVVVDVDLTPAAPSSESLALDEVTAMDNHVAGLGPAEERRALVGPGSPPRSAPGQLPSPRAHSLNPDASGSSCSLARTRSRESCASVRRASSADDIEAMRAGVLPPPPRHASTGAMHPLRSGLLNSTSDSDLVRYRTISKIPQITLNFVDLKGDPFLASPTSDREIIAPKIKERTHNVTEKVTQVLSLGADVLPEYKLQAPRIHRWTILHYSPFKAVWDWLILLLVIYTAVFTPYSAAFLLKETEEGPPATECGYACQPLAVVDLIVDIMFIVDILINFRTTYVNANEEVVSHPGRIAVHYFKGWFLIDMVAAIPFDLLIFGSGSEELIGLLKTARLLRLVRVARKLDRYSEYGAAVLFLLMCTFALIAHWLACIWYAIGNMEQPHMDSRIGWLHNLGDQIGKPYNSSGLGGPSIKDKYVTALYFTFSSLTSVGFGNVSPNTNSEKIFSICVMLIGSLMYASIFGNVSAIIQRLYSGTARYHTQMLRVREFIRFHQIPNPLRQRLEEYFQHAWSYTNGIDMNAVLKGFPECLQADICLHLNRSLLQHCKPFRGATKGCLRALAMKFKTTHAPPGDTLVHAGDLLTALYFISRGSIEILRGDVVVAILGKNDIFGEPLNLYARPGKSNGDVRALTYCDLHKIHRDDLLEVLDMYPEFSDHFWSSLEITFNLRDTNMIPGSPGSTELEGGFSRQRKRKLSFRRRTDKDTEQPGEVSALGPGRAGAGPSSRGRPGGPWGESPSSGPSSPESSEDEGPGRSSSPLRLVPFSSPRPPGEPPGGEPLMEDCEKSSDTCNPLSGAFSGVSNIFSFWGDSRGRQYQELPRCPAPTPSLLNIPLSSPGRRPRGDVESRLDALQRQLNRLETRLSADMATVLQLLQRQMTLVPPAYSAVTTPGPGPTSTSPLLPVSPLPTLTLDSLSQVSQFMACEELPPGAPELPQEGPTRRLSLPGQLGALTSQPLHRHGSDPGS
Experiment: primary screen, population patch clamp on CHO cells stably expressing hERG; higher = less effect of the substance
Description: Briefly, Chinese hamster ovary (CHO) cells stably expressing the hERG channel were dislodged from tissue culture flasks and dispensed into PPC plates. […] During the recording, background leak currents were estimated by a 100 ms step to -80 mV from an initial holding potential of -70 mV and subtracted from the subsequent current measurement. The campaign was conducted in two phases using slight differences in recording protocol. […]
The campaign covered roughly 310,000 compounds. About 14,000 (4.5%) showed an effect of 50% or more. The effect is printed as a negative number. Shown is part of a subset that was picked to be rich in strong results.
Would you kindly list hERG current change (%, negative = inhibition) at 10uM for each of these compounds?

Query for human ether-à-go-go-related gene (hERG) potassium channel (human): what hERG current change (%, negative = inhibition) at 10uM does the record show for COCCN(CC1CCCN(C2Cc3ccccc3C2)C1)C(=O)c1ccc(C(C)=O)cc1 (stereo not drawn) ?
-78.6%

Checklist item: hERG current change (%, negative = inhibition) at 10uM tested on human ether-à-go-go-related gene (hERG) potassium channel (human), entry CCNC(=O)N(CCOC)CC1CCCN(C2Cc3ccccc3C2)C1 (stereo not drawn) , value?
-22.9%

GET /values?readout=hERG current change (%, negative = inhibition) at 10uM&system=human ether-à-go-go-related gene (hERG) potassium channel (human)&item= COCCn1c(SCC(=O)N2CC(=O)Nc3ccccc32)nc2ccccc21
-2.29%

API: value(readout= hERG current change (%, negative = inhibition) at 10uM, system= human ether-à-go-go-related gene (hERG) potassium channel (human), query= COc1ccc(N2CC(C(=O)N3CCN(C(=O)c4ccco4)CC3)CC2=O)cc1 (stereo not drawn) );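 also: peak tail current of the secondary pulse compared with the same well before compound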
-53.3%

Which measured hERG current change (%, negative = inhibition) at 10uM belongs to CCN(CC(=O)Nc1c(F)cccc1F)C(=O)c1ccc(C2SCCS2)cc1 , tested on human ether-à-go-go-related gene (hERG) potassium channel (human)?;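 also: peak tail current of the secondary pulse compared with the same well before compound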
0.0972%

// lookup hERG current change (%, negative = inhibition) at 10uM | system=human ether-à-go-go-related gene (hERG) potassium channel (human) | key= COCCN(CC1CCCN(C2Cc3ccccc3C2)C1)C(=O)CSC (stereo not drawn);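 also: peak tail current of the secondary pulse compared with the same well before compound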
-10.7%

====

Molecular target: human ether-à-go-go-related gene (hERG) potassium channel (human);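 also: peak tail current of the secondary pulse compared with the same well before compound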
Experiment: primary screen, population patch clamp on CHO cells stably expressing hERG; higher = less effect of the substance
Hit rate of the full screen: of about 310,000 compounds, about 14,000 (4.5%) showed an effect of 50% or more. Effects have a minus sign here. This excerpt belongs to a sample that is enriched for strong results.
value kind: hERG current change (%, negative = inhibition) at 10uM (%)
Field: numeric (%). Do not append units.

# input compound: COc1ccc(C(=S)N2CCN(C)CC2)cc1 ; wanted: its hERG current change (%, negative = inhibition) at 10uM
-22.8

So what does the record say about hERG current change (%, negative = inhibition) at 10uM for Cc1cc(C)n(-c2nc(SCC(=O)N3CCCC3)c3c4c(sc3n2)CCCC4)n1 ?
-9.29

Looking for the measured hERG current change (%, negative = inhibition) at 10uM of CCN1CCN(C(=S)c2ccc(OC)cc2)CC1 , can you help?
-64.8

Recorded hERG current change (%, negative = inhibition) at 10uM of Cc1cc(C)n(-c2nc(SCC(=O)O)c3c4c(sc3n2)CCCC4)n1 , please.
6.68

Requested read-out: hERG current change (%, negative = inhibition) at 10uM. Entry: Cc1cc(C)n(-c2nc3c(c(=O)[nH]c(=O)n3C)n2CC(O)COc2ccccc2C)n1 (stereo not shown)
-31.9

Bench note: what hERG current change (%, negative = inhibition) at 10uM did N#C/C(=C\c1ccc(O)c(O)c1)C(=O)NCCCc1ccccc1 show?
-1.59

I am curious: what hERG current change (%, negative = inhibition) at 10uM value has been reported for Cc1noc(C)c1CSCC(=O)OCC(=O)N1CC(=O)Nc2ccccc21 ?
-72.4

Which measured hERG current change (%, negative = inhibition) at 10uM value corresponds to Cc1cc(C)n(-c2nc(SCCN(C)C)c3c4c(sc3n2)CCCC4)n1 ?
-53.7

Find the recorded hERG current change (%, negative = inhibition) at 10uM belonging to CCOc1ccc(C(=O)N2CCCC2)cc1 and report it.
5.24

Which hERG current change (%, negative = inhibition) at 10uM reading was recorded for the compound Cc1cc(C)nc(SCC(=O)Nc2ncc3c(n2)CC(C)(C)CC3=O)n1 ?
-13.1

Give the measured hERG current change (%, negative = inhibition) at 10uM of CCOc1ccc(C(=O)N2CCN(Cc3ccccc3)CC2)cc1 .
-69.3

Could you tell me which hERG current change (%, negative = inhibition) at 10uM is on file for CCN(CC)CCCNc1nc(-n2nc(C)cc2C)nc2sc3c(c12)CC(C)(C)OC3 ?
-23

Consider the compound shown here: O=C(Cn1nnc(-c2ccccc2F)n1)OCC(=O)c1ccccc1 What is its recorded hERG current change (%, negative = inhibition) at 10uM?
10.9

Origin of values: paper PMC4336329
